- experimental-system: Bombyx mori EcR (VP16 fusion, CVBE switch construct) (Bombyx mori)
- Sequence (P49881 86-606): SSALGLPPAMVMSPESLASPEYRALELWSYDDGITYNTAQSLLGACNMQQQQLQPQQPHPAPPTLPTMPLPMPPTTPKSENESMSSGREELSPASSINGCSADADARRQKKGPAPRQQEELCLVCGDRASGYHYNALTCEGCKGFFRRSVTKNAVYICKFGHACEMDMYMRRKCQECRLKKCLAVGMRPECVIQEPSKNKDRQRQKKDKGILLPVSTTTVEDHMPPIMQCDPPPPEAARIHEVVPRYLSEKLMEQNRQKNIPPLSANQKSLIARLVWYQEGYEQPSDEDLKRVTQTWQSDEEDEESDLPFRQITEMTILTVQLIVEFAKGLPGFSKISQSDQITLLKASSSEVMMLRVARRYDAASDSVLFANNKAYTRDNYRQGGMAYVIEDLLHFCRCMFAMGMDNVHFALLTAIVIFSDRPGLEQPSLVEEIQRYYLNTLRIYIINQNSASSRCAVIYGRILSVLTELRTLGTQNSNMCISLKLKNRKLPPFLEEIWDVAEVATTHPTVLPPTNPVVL
- Sequence (P19793 whole entry partner, the tested form may be a part): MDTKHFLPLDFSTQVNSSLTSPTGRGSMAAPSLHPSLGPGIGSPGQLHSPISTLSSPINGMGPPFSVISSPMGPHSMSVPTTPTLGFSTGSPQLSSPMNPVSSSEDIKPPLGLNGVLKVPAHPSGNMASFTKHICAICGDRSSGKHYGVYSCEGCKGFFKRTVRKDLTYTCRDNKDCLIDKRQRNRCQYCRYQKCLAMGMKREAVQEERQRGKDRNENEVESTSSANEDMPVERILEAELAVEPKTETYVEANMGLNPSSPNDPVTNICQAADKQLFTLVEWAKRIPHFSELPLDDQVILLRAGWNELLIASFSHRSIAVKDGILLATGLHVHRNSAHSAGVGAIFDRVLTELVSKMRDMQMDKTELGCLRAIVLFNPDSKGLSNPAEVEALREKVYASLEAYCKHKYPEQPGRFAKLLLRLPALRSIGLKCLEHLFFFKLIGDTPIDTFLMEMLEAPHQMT
- experiment-notes: Z3 Assay (HEK-293 cells with CVBE and 6XEcRE LacZ, β-galactosidase reporter)
- protocol-conditions: 3.3 uM ligand; ligand treated / DMSO treated cells; average of two wells
endpoint-name: Fold Induction, Z3 Assay, 3.3 uM

In [3]: df
Out[3]:
                                    molecule                       experimental_system                     endpoint_name  result_value
 0  COc1cc(C(=O)N(NC(=O)c2cccc(O)c2C)C(C)(C)C)cc(OC)c1C  Bombyx mori EcR (VP16 fusion, CVBE switch construct) (Bombyx mori)  Fold Induction, Z3 Assay, 3.3 uM           298
 1  CC(C)(C)N(NC(=O)c1c(F)ccc(F)c1F)C(=O)c1ccc(F)cc1Cl  Bombyx mori EcR (VP16 fusion, CVBE switch construct) (Bombyx mori)  Fold Induction, Z3 Assay, 3.3 uM           710
 2  CCc1c(C(=O)NN(C(=O)c2ccc(Cl)cc2F)C(C)(C)C)ccc2c1OCCO2  Bombyx mori EcR (VP16 fusion, CVBE switch construct) (Bombyx mori)  Fold Induction, Z3 Assay, 3.3 uM           383
 3  CCCC(N(NC(=O)c1cccc(OC)c1C)C(=O)c1cc(C)cc(C)c1)C(C)(C)C (centres unmarked)  Bombyx mori EcR (VP16 fusion, CVBE switch construct) (Bombyx mori)  Fold Induction, Z3 Assay, 3.3 uM          1440
 4  Cc1cc(C)cc(C(=O)N(NC(=O)c2ccc3c(c2)OC(F)(F)O3)C(C)(C)C)c1  Bombyx mori EcR (VP16 fusion, CVBE switch construct) (Bombyx mori)  Fold Induction, Z3 Assay, 3.3 uM           647
 5  CCc1c(OC)cccc1C(=O)NN(C(=O)c1cc(C)cc(C=NO)c1)C(C)(C)C  Bombyx mori EcR (VP16 fusion, CVBE switch construct) (Bombyx mori)  Fold Induction, Z3 Assay, 3.3 uM           265
 6  CCc1c(OC)cccc1C(=O)NN(C(=O)c1ccccc1[S+](C)[O-])C(C)(C)C (centres unmarked)  Bombyx mori EcR (VP16 fusion, CVBE switch construct) (Bombyx mori)  Fold Induction, Z3 Assay, 3.3 uM           349
 7  COc1ccc(Cl)cc1C(=O)N(NC(=O)c1cccc(C)c1C)C(C)(C)C  Bombyx mori EcR (VP16 fusion, CVBE switch construct) (Bombyx mori)  Fold Induction, Z3 Assay, 3.3 uM          1200
 8  CCc1c(OC)cccc1C(=O)NN(C(=O)c1cccc(F)c1F)C(C)(C)C  Bombyx mori EcR (VP16 fusion, CVBE switch construct) (Bombyx mori)  Fold Induction, Z3 Assay, 3.3 uM           378
 9  CCc1c(OC)cccc1C(=O)NN(C(=O)c1cc(C)nc(Cl)c1)C(C)(C)C  Bombyx mori EcR (VP16 fusion, CVBE switch construct) (Bombyx mori)  Fold Induction, Z3 Assay, 3.3 uM          1480
10  COc1cccc(C(=O)NN(C(=O)c2cc(C)cc(C)c2)C(C)(C)C)c1I  Bombyx mori EcR (VP16 fusion, CVBE switch construct) (Bombyx mori)  Fold Induction, Z3 Assay, 3.3 uM           748
11  Cc1c(C(=O)NN(C(=O)c2cc(Cl)nc(Cl)c2)C(C)(C)C)ccc2c1OCCO2  Bombyx mori EcR (VP16 fusion, CVBE switch construct) (Bombyx mori)  Fold Induction, Z3 Assay, 3.3 uM           488
12  CCc1c(OC)cccc1C(=O)NN(C(=O)c1cccc(F)c1)C(C)(C)C  Bombyx mori EcR (VP16 fusion, CVBE switch construct) (Bombyx mori)  Fold Induction, Z3 Assay, 3.3 uM          1306
13  Cc1cc(C)cc(C(=O)N(NC(=O)c2ccc3c(c2C)CCCO3)C(C)(C)C)c1  Bombyx mori EcR (VP16 fusion, CVBE switch construct) (Bombyx mori)  Fold Induction, Z3 Assay, 3.3 uM           249
14  Cc1c(C(=O)NN(C(=O)c2cc(F)cc(F)c2)C(C)(C)C)ccc2c1CCCO2  Bombyx mori EcR (VP16 fusion, CVBE switch construct) (Bombyx mori)  Fold Induction, Z3 Assay, 3.3 uM           354
15  CCc1c(OC)cccc1C(=O)NN(C(=O)c1cc(C)cc(COC(C)=O)c1)C(C)(C)C  Bombyx mori EcR (VP16 fusion, CVBE switch construct) (Bombyx mori)  Fold Induction, Z3 Assay, 3.3 uM           323
16  CCc1ccc(C(=O)NN(C(=O)c2cc(C)cc(Cl)c2)C(C)(C)C)cc1  Bombyx mori EcR (VP16 fusion, CVBE switch construct) (Bombyx mori)  Fold Induction, Z3 Assay, 3.3 uM           631

###

- experimental-system: GAL4 DBD (1-147)-CfEcR(DEF)/VP16AD-βRXREF-LmUSPEF (Choristoneura fumiferana)
- experiment-notes: cell-based
- protocol-conditions: read-out: 27-63 assay EC50; CHO 27-63 stable cell line, luciferase reporter; average of two wells
pEC50: −log10 of the molar value.
The compounds listed here are annotated with their pEC50.
endpoint-name: pEC50

                                   compound  endpoint_name  result_value
0  CCc1ccc(C(=O)NN(C(=O)c2cccnc2OC)C(CC)C(C)(C)C)cc1 (centres unmarked)          pEC50          5.95
1  Cc1ccc([N+](=O)[O-])c(C(=O)N(NC(=O)c2ccc3c(c2C)CCCO3)C(C)(C)C)c1          pEC50          6.44
2  CCc1ccc(C(=O)NN(C(=O)c2cc(C)cc(C)c2)C(CC)C(C)(C)C)cc1 (centres unmarked)          pEC50          7.01
3  CCc1c(C(=O)NN(C(=O)c2ccc(Cl)cc2F)C(C)(C)C)ccc2c1OCCO2          pEC50          6.77
4  CCc1c(C(=O)NN(C(=O)c2ccc(Cl)cc2OC)C(C)(C)C)ccc2c1OCO2          pEC50          6.09
5  CCc1c(OC)cccc1C(=O)NN(C(=O)c1ccc2c(c1)OCO2)C(C)(C)C          pEC50          5.40
6  CCc1c(C(=O)NN(C(=O)c2cc(Cl)nc(Cl)c2)C(C)(C)C)ccc2c1OCCO2          pEC50          6.48
7  COc1ccc(Cl)cc1C(=O)N(NC(=O)c1ccc2c(c1C)CCCO2)C(C)(C)C          pEC50          6.07

###

- experimental-system: GAL4 DBD-CfEcR(DEF)/VP16AD-MmRXRE (Choristoneura fumiferana)
- experiment-notes: 13B3 Assay (CHO stable cell line, luciferase reporter)
- protocol-conditions: 3.3 uM ligand; RLU ligand treated / RLU DMSO treated cells; average of two wells
endpoint-name: Fold Induction, 13B3 Assay, 3.3 uM

>>> print(df.to_string())
                                   compound                       experimental_system  result_value
0  CCc1c(OC)cccc1C(=O)NN(C(=O)c1cc(C)cc(C)c1)C(C)(C)CO [RG-115143]  GAL4 DBD-CfEcR(DEF)/VP16AD-MmRXRE (Choristoneura fumiferana)             1
1  COc1ccc(C(=O)NN(C(=O)c2ccc(F)cc2Cl)C(C)(C)C)cc1 [RG-101057]  GAL4 DBD-CfEcR(DEF)/VP16AD-MmRXRE (Choristoneura fumiferana)            33
2  COc1cnccc1C(=O)N(NC(=O)c1cccc(O)c1C)C(C)(C)C [RG-115595]  GAL4 DBD-CfEcR(DEF)/VP16AD-MmRXRE (Choristoneura fumiferana)             6
3  CCc1ccc(C(=O)NN(C(=O)c2cc(OC)c(C)c(OC)c2)C(C)(C)C)c(F)c1 [RG-115077]  GAL4 DBD-CfEcR(DEF)/VP16AD-MmRXRE (Choristoneura fumiferana)           932
4  CCc1c(C(=O)NN(C(=O)c2ccccc2OC)C(C)(C)C)ccc2c1OCCO2 [RG-100690]  GAL4 DBD-CfEcR(DEF)/VP16AD-MmRXRE (Choristoneura fumiferana)          1094
5  Cc1c(C(=O)NN(C(=O)c2cc(Cl)nc(Cl)c2)C(C)(C)C)ccc2c1OCCO2 [RG-115536]  GAL4 DBD-CfEcR(DEF)/VP16AD-MmRXRE (Choristoneura fumiferana)           483
6  COc1cccc(C(=O)NN(C(=O)c2cc(C)cc(C)c2)C(C)(C)C)c1I [RG-101528]  GAL4 DBD-CfEcR(DEF)/VP16AD-MmRXRE (Choristoneura fumiferana)           259
7  Cc1ccc([N+](=O)[O-])c(C(=O)N(NC(=O)c2ccc3c(c2C)OCCO3)C(C)(C)C)c1 [RG-115384]  GAL4 DBD-CfEcR(DEF)/VP16AD-MmRXRE (Choristoneura fumiferana)          2753
